Experiment: Acrylamide quenching of Trp fluorescence in absence and presence of lipid vesicles
Assay type: physicochemical
Details: 3:1 DOPC:DOPG vesicles, 250 μM lipid; 2 μM peptide in PBS pH 7.0; λex 295 nm, λem 340; average of three replicates ± SD
Procedure: To form small unilamellar vesicles (SUVs) sonication or ethanol dilution methods were implemented ([Caputo & London, 2019]). In all cases, lipid vesicle preparation was the same. […] Acrylamide quenching was monitored by titration of samples with 10 μL aliquots of 4M acrylamide titrated into peptide samples prepared as described above. […] After each addition of acrylamide, Trp fluorescence intensity was measured using λex = 295 nm and λem = 340. […]
Ends that are not written are not given here.
Lab note - cut at 9 M⁻¹ for Acrylamide quenching Ksv, PCPG: Y if strictly below, N if not.

The examples below pair each entry with its known result.
Please state whether Acrylamide quenching Ksv, PCPG is below 9 M⁻¹ for AAKEAWTKMKGAGKAAAGKAKGAA [L1A]
N

Please state whether Acrylamide quenching Ksv, PCPG is below 9 M⁻¹ for VVKEVWTKMKGAGKAVVGKVKGVV [L1V]
N

Please state whether Acrylamide quenching Ksv, PCPG is below 9 M⁻¹ for LLKELWTKMKGAGKALLGKLKGLL [L1L]
Y

New cases:
Please state whether Acrylamide quenching Ksv, PCPG is below 9 M⁻¹ for IIKEIWTKMKGAGKAIIGKIKGII [L1I]
Y

Please state whether Acrylamide quenching Ksv, PCPG is below 9 M⁻¹ for FFKEFWTKMKGAGKAFFGKFKGFF [L1F]
Y

====

Each record here notes measured Acrylamide quenching Ksv, PC.
assay: Acrylamide quenching of Trp fluorescence in absence and presence of lipid vesicles; type: physicochemical; conditions: DOPC vesicles, 250 μM lipid; 2 μM peptide in PBS pH 7.0; λex 295 nm, λem 340; average of three replicates ± SD
Ends that are not written are not given here.
Give the quantity in M⁻¹, number only.

Please review the entries below; each comes with its answer.
Please look up its Acrylamide quenching Ksv, PC: IIKEIWTKMKGAGKAIIGKIKGII [L1I]
4.9

Please look up its Acrylamide quenching Ksv, PC: FFKEFWTKMKGAGKAFFGKFKGFF [L1F]
1.57

Please look up its Acrylamide quenching Ksv, PC: LLKELWTKMKGAGKALLGKLKGLL [L1L]
4.08

Please look up its Acrylamide quenching Ksv, PC: AAKEAWTKMKGAGKAAAGKAKGAA [L1A]
8.51

// next item, Acrylamide quenching Ksv, PC requested
Please look up its Acrylamide quenching Ksv, PC: VVKEVWTKMKGAGKAVVGKVKGVV [L1V]
4.18

====

Each record here notes measured Acrylamide quenching Ksv, PEPG.
assay: Acrylamide quenching of Trp fluorescence in absence and presence of lipid vesicles; type: physicochemical; conditions: 3:1 POPE:DOPG vesicles, 250 μM lipid; 2 μM peptide in PBS pH 7.0; λex 295 nm, λem 340; average of three replicates ± SD
Ends that are not written are not given here.
Give the quantity in M⁻¹, number only.

Please look up its Acrylamide quenching Ksv, PEPG: VVKEVWTKMKGAGKAVVGKVKGVV [L1V]
5.64

Please look up its Acrylamide quenching Ksv, PEPG: IIKEIWTKMKGAGKAIIGKIKGII [L1I]
3.39

Please look up its Acrylamide quenching Ksv, PEPG: AAKEAWTKMKGAGKAAAGKAKGAA [L1A]
3.59

New cases:
Please look up its Acrylamide quenching Ksv, PEPG: LLKELWTKMKGAGKALLGKLKGLL [L1L]
2.22

Please look up its Acrylamide quenching Ksv, PEPG: FFKEFWTKMKGAGKAFFGKFKGFF [L1F]
1.80
